The following molecules have recorded AC50 on Neuronal acetylcholine receptor subunit alpha-4 (Homo sapiens).
Sequence (P43681 whole entry): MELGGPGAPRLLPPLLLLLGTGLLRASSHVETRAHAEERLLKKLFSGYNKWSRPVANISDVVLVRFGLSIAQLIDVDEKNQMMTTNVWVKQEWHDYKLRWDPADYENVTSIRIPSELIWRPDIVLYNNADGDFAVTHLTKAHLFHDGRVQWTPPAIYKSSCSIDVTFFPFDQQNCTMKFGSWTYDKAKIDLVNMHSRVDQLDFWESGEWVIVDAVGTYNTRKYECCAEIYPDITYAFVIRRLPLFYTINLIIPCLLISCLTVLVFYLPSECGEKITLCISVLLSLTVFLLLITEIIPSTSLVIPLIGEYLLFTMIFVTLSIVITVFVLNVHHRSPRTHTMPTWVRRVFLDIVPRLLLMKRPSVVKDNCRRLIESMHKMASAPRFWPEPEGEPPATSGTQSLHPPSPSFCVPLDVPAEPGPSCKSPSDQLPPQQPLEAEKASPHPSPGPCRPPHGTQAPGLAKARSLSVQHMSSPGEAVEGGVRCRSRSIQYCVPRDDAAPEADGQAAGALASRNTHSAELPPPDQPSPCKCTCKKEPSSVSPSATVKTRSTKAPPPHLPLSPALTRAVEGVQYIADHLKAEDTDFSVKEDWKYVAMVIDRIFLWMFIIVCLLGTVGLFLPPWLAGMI

Previously resolved entries follow.
> print(dat)
                                   molecule                              assay.system  value.measured
1  NC(=O)CCC/N=C(\c1ccc(Cl)cc1)c1cc(F)ccc1O [PROGABIDE]  Neuronal acetylcholine receptor subunit alpha-4 (Homo sapiens)         > 10 µM
2  CC(=O)Nc1c(I)c(C(=O)N[C@H]2C(O)O[C@H](CO)[C@@H](O)[C@@H]2O)c(I)c(N(C)C(C)=O)c1I (some centres undefined) [METRIZAMIDE]  Neuronal acetylcholine receptor subunit alpha-4 (Homo sapiens)         > 10 µM
3  CN(C)C(=O)Oc1cc(OC(=O)N(C)C)cc(C(O)CNC(C)(C)C)c1 (centres undefined) [BAMBUTEROL]  Neuronal acetylcholine receptor subunit alpha-4 (Homo sapiens)         > 30 µM

Then this molecule:
Request: Return reported AC50; argument: CNC(=O)c1cc(Oc2ccc(NC(=O)Nc3ccc(Cl)c(C(F)(F)F)c3)c(F)c2)ccn1 [REGORAFENIB]
Result: > 30 µM

====

# AC50 measurements, system: Growth hormone secretagogue receptor type 1 (Homo sapiens); note: assay procedure not described here
# Sequence (Q92847 whole entry): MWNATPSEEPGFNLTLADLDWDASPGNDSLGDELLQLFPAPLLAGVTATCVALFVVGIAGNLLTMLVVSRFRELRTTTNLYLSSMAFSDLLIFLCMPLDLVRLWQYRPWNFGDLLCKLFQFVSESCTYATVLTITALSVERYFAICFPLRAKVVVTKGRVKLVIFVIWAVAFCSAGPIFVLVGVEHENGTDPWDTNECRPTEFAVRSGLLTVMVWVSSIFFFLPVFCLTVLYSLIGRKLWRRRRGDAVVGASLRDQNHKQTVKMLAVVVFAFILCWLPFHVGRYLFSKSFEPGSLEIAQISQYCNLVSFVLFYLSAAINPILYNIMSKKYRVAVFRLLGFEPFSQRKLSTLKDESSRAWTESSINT

The following compounds have reported results that may help.
> print(dat)
                                   compound                              assay.system  experimental.endpoint  value.measured
1  Cc1cc(CC(=O)O)n(C)c1C(=O)c1ccc(Cl)cc1 [ZOMEPIRAC]  Growth hormone secretagogue receptor type 1 (Homo sapiens)                   AC50         > 30 µM
2  CC(C)(C)NCC(O)c1cc(Cl)c(N)c(Cl)c1 (centres undefined) [CLENBUTEROL]  Growth hormone secretagogue receptor type 1 (Homo sapiens)                   AC50         > 30 µM
3       CC(C)C[C@H](CN)CC(=O)O [PREGABALIN]  Growth hormone secretagogue receptor type 1 (Homo sapiens)                   AC50         > 30 µM
4       Clc1cccc(Cl)c1N=C1NCCN1 [CLONIDINE]  Growth hormone secretagogue receptor type 1 (Homo sapiens)                   AC50         > 30 µM
5  NS(=O)(=O)c1cc2c(cc1C(F)(F)F)NC(Cc1ccccc1)NS2(=O)=O (centres undefined) [BENDROFLUMETHIAZIDE]  Growth hormone secretagogue receptor type 1 (Homo sapiens)                   AC50         > 10 µM

Give measured AC50 for every item shown.
1. Cc1cccc(N(C)C(=S)Oc2ccc3ccccc3c2)c1 [TOLNAFTATE]
2. CN1CCN(c2c(F)cc3c(=O)c(C(=O)O)cn4c3c2SCC4)CC1 [RUFLOXACIN]

Result:
["> 10 µM", "> 30 µM"]

Look at each compound and report its AC50.
1. C=CC1=C(C(=O)O)N2C(=O)[C@@H](NC(=O)/C(=N\OCC(=O)O)c3csc(N)n3)[C@H]2SC1 [CEFIXIME]
2. COc1cc2c(Nc3ccc(Br)cc3F)ncnc2cc1OCC1CCN(C)CC1 [VANDETANIB]

Result:
["> 30 µM", "26 µM"]
